Recorded Ki by entry
- System tested: yeast 80S ribosome (S. cerevisiae (endogenous in yeast)) (UniProt P26321)
- Sequence (P26321 whole entry, looked up): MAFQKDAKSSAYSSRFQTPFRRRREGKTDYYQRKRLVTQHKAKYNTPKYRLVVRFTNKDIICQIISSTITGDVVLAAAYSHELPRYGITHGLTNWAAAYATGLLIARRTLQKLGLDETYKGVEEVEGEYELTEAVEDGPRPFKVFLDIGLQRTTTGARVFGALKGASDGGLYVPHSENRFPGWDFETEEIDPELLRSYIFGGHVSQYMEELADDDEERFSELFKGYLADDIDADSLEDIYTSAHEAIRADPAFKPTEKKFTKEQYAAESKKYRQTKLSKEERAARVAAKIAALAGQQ
- Assay name: fluorescence polarisation
Respond with the bare value in nM.

The following binders have reported results that may help.
- Binder: "yeast non hypusine-containing eIF5A (eIF5A-Lys), wild type (natural protein) MSDEEHTFETADAGSSATYPMQCSALRKNGFVVIKSRPCKIVDMSTSKTGKHGHAKVHLVAIDIFTGKKLEDLSPSTHNMEVPVVKRNEYQLLDIDDGFLSLMNMDGDTKDDVKAPEGELGDSLQTAFDEGKDLMVTIISAMGEEAAISFKEAARTD"
  Quantitative readout: 238
- Binder: "yeast hypusine-containing eIF5A (eIF5A-Hyp), wild type (natural protein, hypusine at Lys51) MSDEEHTFETADAGSSATYPMQCSALRKNGFVVIKSRPCKIVDMSTSKTGKHGHAKVHLVAIDIFTGKKLEDLSPSTHNMEVPVVKRNEYQLLDIDDGFLSLMNMDGDTKDDVKAPEGELGDSLQTAFDEGKDLMVTIISAMGEEAAISFKEAARTD"
  Quantitative readout: 8
- Binder: "hypusine-containing eIF5A from mutant tif51A-4 (K86A/R87A/E89A) (natural protein, hypusine at Lys51) MSDEEHTFETADAGSSATYPMQCSALRKNGFVVIKSRPCKIVDMSTSKTGKHGHAKVHLVAIDIFTGKKLEDLSPSTHNMEVPVVAANAYQLLDIDDGFLSLMNMDGDTKDDVKAPEGELGDSLQTAFDEGKDLMVTIISAMGEEAAISFKEAARTD"
  Quantitative readout: 171

Now let's try a different one.
Req: Which Ki value belongs to non hypusine-containing eIF5A from mutant tif51A-4 (K86A/R87A/E89A) (natural protein) MSDEEHTFETADAGSSATYPMQCSALRKNGFVVIKSRPCKIVDMSTSKTGKHGHAKVHLVAIDIFTGKKLEDLSPSTHNMEVPVVAANAYQLLDIDDGFLSLMNMDGDTKDDVKAPEGELGDSLQTAFDEGKDLMVTIISAMGEEAAISFKEAARTD ?
Resp: 388
